Data credit: ChEMBL document CHEMBL2331134

Protein target, amino acids: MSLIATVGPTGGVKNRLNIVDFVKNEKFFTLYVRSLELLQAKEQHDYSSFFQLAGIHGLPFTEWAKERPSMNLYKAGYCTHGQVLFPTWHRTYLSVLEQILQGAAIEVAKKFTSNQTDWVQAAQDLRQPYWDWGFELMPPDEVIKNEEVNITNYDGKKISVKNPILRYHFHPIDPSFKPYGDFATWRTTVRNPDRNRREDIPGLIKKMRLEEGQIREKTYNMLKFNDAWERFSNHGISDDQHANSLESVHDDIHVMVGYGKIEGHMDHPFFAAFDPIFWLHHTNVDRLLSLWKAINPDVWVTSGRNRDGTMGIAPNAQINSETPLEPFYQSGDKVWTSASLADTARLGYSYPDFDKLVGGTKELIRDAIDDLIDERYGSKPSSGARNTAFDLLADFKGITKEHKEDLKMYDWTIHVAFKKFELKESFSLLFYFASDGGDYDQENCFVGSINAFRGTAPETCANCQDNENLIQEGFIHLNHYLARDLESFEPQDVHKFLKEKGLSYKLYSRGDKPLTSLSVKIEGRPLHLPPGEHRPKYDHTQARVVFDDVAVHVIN
PARAMETER_MEASURED: IC50 (µM)

>>> observed_value("CC(=O)N1N=C(c2ccc(O)cc2O)CC1c1ccc(O)cc1 (stereo not given)")
1.69
>>> observed_value("COc1cc(C2CC(c3ccccc3O)=NN2C(C)=O)ccc1O (stereo not given)")
13.4
>>> observed_value("COc1cc(C2CC(c3ccc(O)cc3O)=NN2C(C)=O)ccc1O (stereo not given)")
0.301

(a) CC(=O)N1N=C(c2ccc(O)cc2)CC1c1ccc(O)cc1 (stereo not given)
(b) Oc1cccc(C2CC(c3ccc(O)cc3O)=NN2)c1 (stereo not given)
[ask] Returns: the argument ( a or b ) having the larger IC50. Answer = label.
[reply] a
